Entry source: patent US8871783B2

Molecular target: recombinant human DPPI (Homo sapiens (Human), UniProt P53634)
Sequence (P53634 231-394): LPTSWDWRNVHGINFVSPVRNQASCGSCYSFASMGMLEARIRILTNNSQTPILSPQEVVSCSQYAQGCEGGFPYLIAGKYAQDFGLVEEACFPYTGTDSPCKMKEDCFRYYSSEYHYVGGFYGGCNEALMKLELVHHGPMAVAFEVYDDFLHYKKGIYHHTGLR
Sequence (P53634 395-463): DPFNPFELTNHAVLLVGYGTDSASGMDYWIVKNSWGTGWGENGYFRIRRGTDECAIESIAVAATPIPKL
Sequence (P53634 25-134): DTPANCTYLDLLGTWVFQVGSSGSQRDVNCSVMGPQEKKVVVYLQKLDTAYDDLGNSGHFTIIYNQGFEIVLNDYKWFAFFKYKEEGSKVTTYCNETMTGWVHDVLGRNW
Assay: Inhibition of Human DPPI (Cathepsin C)
Details: substrate Gly-Arg-AMC 50 μM, MES buffer pH 6.0, fluorescence
pKi: −log10 of the molar value.
experimental.endpoint: pKi

compound: N#C[C@H](Cc1ccc(-c2ccc3c(c2)NC(=O)C3)s1)NC(=O)[C@H]1N[C@@H]2CC[C@H]1C2
quantitative.readout: 8.38
//
compound: CS(=O)(=O)c1ccc(-c2ccc(C[C@@H](C#N)NC(=O)[C@H]3N[C@@H]4CC[C@H]3C4)s2)cc1
quantitative.readout: 7.76
//
compound: N#Cc1ccc(-c2ccc(C[C@@H](C#N)NC(=O)[C@H]3N[C@@H]4CC[C@H]3C4)s2)cc1F
quantitative.readout: 7.86
//
compound: CC1(C)OC(=O)c2ccc(-c3ccc(C[C@@H](C#N)NC(=O)[C@H]4N[C@@H]5CC[C@H]4C5)s3)cc21
quantitative.readout: 8.40
//
compound: CN1C(=O)Cc2ccc(-c3ccc(C[C@@H](C#N)NC(=O)[C@H]4N[C@@H]5CC[C@H]4C5)o3)cc21
quantitative.readout: 6.75
//
compound: CN1C(=O)Cc2ccc(-c3ccc4oc(CC(C#N)NC(=O)[C@H]5N[C@@H]6CC[C@H]5C6)cc4c3)cc21 (some centres unmarked)
quantitative.readout: 6.98
//
compound: CN1C(=O)C(=O)c2ccc(-c3ccc(C[C@@H](C#N)NC(=O)[C@H]4N[C@@H]5CC[C@H]4C5)s3)cc21
quantitative.readout: 8.68
//
compound: CN1C(=O)Cc2ccc(-c3csc(CC(C#N)NC(=O)[C@H]4N[C@@H]5CC[C@H]4C5)c3F)cc21 (some centres unmarked)
quantitative.readout: 7.21
//
compound: N#Cc1ccc(-c2ccc3oc(CC(C#N)NC(=O)[C@H]4N[C@@H]5CC[C@H]4C5)cc3c2)cc1F (some centres unmarked)
quantitative.readout: 7.41
//
compound: CN1C(=O)Cc2ccc(-c3ccc(C[C@@H](C#N)NC(=O)[C@H]4N[C@@H]5CC[C@H]4C5)s3)cc21
quantitative.readout: 8.49
//
compound: CC1(C)OC(=O)c2cc(-c3ccc(C[C@@H](C#N)NC(=O)[C@H]4N[C@@H]5CC[C@H]4C5)s3)ccc21
quantitative.readout: 7.66
//
compound: N#CC(Cc1cc2cc(-c3ccccc3)ccc2o1)NC(=O)[C@H]1N[C@@H]2CC[C@H]1C2 (some centres unmarked)
quantitative.readout: 7.21
//
compound: CCn1cc(-c2ccc(C[C@@H](C#N)NC(=O)[C@H]3N[C@@H]4CC[C@H]3C4)s2)cn1
quantitative.readout: 7.77
//
compound: N#CC(Cc1cc2cc(Br)ccc2s1)NC(=O)[C@H]1N[C@@H]2CC[C@H]1C2 (some centres unmarked)
quantitative.readout: 7.45
//
compound: CN1CCC(c2ccc(C[C@@H](C#N)NC(=O)[C@H]3N[C@@H]4CC[C@H]3C4)s2)CC1
quantitative.readout: 7.42
//
compound: N#C[C@H](Cc1ccc(-c2cnn(CC3CCOCC3)c2)s1)NC(=O)[C@H]1N[C@@H]2CC[C@H]1C2
quantitative.readout: 7.57
//
compound: CN1C(=O)Cc2ccc(-c3cc(F)c(CC(C#N)NC(=O)[C@H]4N[C@@H]5CC[C@H]4C5)s3)cc21 (some centres unmarked)
quantitative.readout: 8.66
//
compound: CS(=O)(=O)c1cccc(-c2ccc(C[C@@H](C#N)NC(=O)[C@H]3N[C@@H]4CC[C@H]3C4)s2)c1
quantitative.readout: 7.78
//
compound: CN1CCN(S(=O)(=O)c2ccc(-c3ccc(C[C@@H](C#N)NC(=O)[C@H]4N[C@@H]5CC[C@H]4C5)s3)cc2)CC1
quantitative.readout: 8.54
//
compound: N#CC(Cc1cc2cc(-c3ccccc3)ccc2s1)NC(=O)[C@H]1N[C@@H]2CC[C@H]1C2 (some centres unmarked)
quantitative.readout: 7.14
